assay: Selectivity index, ratio of CC50 for cytotoxicity against human MT4 cells assessed as reduction in cell viability to EC50 for antiviral activity against NNRTI-resistant HIV-1 harboring Y181C mutant infected in human MT4 cells; type: toxicity, cell-based; settings: read-out: Ratio CC50/EC50
Give measured selectivity ratio for each item. Keep answers brief.
Answers are plain numbers.

Reference set, count: 5
* Cc1cc(C#N)cc(C)c1Oc1nc(NC2CCN(Cc3ccc(S(N)(=O)=O)cc3)CC2)ncc1C(N)=O | 671
* Cc1cc(C#N)cc(C)c1Oc1nc(NC2CCN(c3ccc(NS(=O)(=O)N(C)C)cc3)CC2)ncc1C(N)=O | 3910
* Cc1cc(C#N)cc(C)c1Oc1nc(Nc2ccc(C#N)c(F)c2)ncc1C(N)=O | 194
* Cc1cc(C#N)cc(C)c1Oc1nc(Nc2ccc(C#N)cc2)ncc1C(N)=O | 82
* Cc1cc(C#N)cc(C)c1Oc1nc(NC2CCN(c3ccc(N)cc3)CC2)ncc1C(N)=O | 726

Batch of 2 compounds: report selectivity ratio for each.
1. Cc1cc(C#N)cc(C)c1Oc1nc(NC2CCN(c3ccc(NS(=O)(=O)C4CC4)cc3)CC2)ncc1C(N)=O
2. Cc1cc(C#N)cc(C)c1Oc1nc(NC2CCN(c3ccc(NS(N)(=O)=O)cc3)CC2)ncc1C(N)=O

OUT:
1: 4570; 2: 997

----------
Would you kindly list CC50 at 120 h for each of these molecules?
experiment: Cytotoxicity against human MT4 cells assessed as cell growth inhibition incubated for 5 days by MTT assay; assay type: toxicity, cell-based; details: time 5 day

Here are 5 molecules together with their reported answers.
- Cc1cc(C#N)cc(C)c1Oc1nc(NC2CCN(Cc3ccc(B(O)O)cc3)CC2)ncc1C(N)=O: > 250 µM
- Cc1cc(C#N)cc(C)c1Oc1nc(Nc2ccc(CN3CCN(S(C)(=O)=O)CC3)cc2)ncc1C(N)=O: > 233 µM
- Cc1cc(C#N)cc(C)c1Oc1nc(Nc2ccc(C#N)cc2)nc(N)c1Br [ETRAVIRINE]: > 4.6 µM
- O=C1Nc2ccc(Cl)cc2[C@@](C#CC2CC2)(C(F)(F)F)O1 [EFAVIRENZ]: > 6.35 µM
- Cc1cc(C#N)cc(C)c1Oc1nc(NC2CCN(Cc3ccc(S(C)(=O)=O)cc3)CC2)ncc1C(N)=O: > 234 µM

Now, please, on to the next molecule.
IN: Find the recorded CC50 at 120 h belonging to `Cc1cc(C#N)cc(C)c1Oc1nc(NC2CCN(c3ccc(NS(C)(=O)=O)cc3)CC2)ncc1C(N)=O` and report it.
OUT: > 233 µM

----------
For each of the compounds below, state its selectivity ratio.
test: Selectivity index, ratio of CC50 for cytotoxicity against human MT4 cells assessed as reduction in cell viability to EC50 for antiviral activity against NNRTI-resistant HIV-1 harboring E138K mutant infected in human MT4 cells; format: toxicity, cell-based; details: read-out: Ratio CC50/EC50

Past entries and their recorded results:
• Cc1cc(C#N)cc(C)c1Oc1nc(NC2CCN(Cc3ccc(B(O)O)cc3)CC2)ncc1C(N)=O = > 1520
• Cc1cc(C#N)cc(C)c1Oc1nc(NC2CCN(Cc3ccc(C(N)=O)cc3)CC2)ncc1C(N)=O = > 659
• Cc1cc(C#N)cc(C)c1Oc1nc(NC2CCN(Cc3ccc(S(C)(=O)=O)cc3)CC2)ncc1C(N)=O = > 1560

From here, focus on the item given below.
IN: State the recorded selectivity ratio for this entry: `Cc1cc(C#N)cc(C)c1Oc1nc(NC2CCN(c3ccc(NS(C)(=O)=O)cc3)CC2)ncc1C(N)=O`
OUT: > 1040
